These measurements were taken from patent EP4806904A1.

# Tested on: neural stem cell line C17.2
# protocol.details: Proliferation of neural stem cell line C17.2, BrdU, high-content imaging
# Type: cell-based
# assay.context: 100 µg/mL, 48 h, percentage of BrdU-positive cells, significance vs blank control group
Where no end group is shown, it is not given here.
quantity.kind: Proliferation-promoting results

Look over these answered cases.
H-LAPAPGTI-OH [Compound 20, H-Leu-Ala-Pro-Ala-Pro-Gly-Thr-Ile-OH] = * (*p < 0.05)
H-ALPAGGTL-OH [Compound 15, H-Ala-Leu-Pro-Ala-Gly-Gly-Thr-Leu-OH] = * (*p < 0.05)
H-ALPAAGTL-OH [Compound 17, H-Ala-Leu-Pro-Ala-Ala-Gly-Thr-Leu-OH] = ** (**p < 0.01)
H-ALPAPGTL-NH2 [Compound 10, H-Ala-Leu-Pro-Ala-Pro-Gly-Thr-Leu-NH2] = ** (**p < 0.01)
Ac-ALPAPGTL-NH2 [Compound 11, Ac-Ala-Leu-Pro-Ala-Pro-Gly-Thr-Leu-NH2] = ** (**p < 0.01)
H-AAPAPGTL-OH [Compound 16, H-Ala-Ala-Pro-Ala-Pro-Gly-Thr-Leu-OH] = * (*p < 0.05)

Could you report Proliferation-promoting results for every entry in the following list?
1. H-LAPAPGTL-OH [Compound 19, H-Leu-Ala-Pro-Ala-Pro-Gly-Thr-Leu-OH]
2. H-LPAPGT-OH [Compound 32, H-Leu-Pro-Ala-Pro-Gly-Thr-OH]
3. ALPAPG [Compound 40, H-Ala-Leu-Pro-Ala-Pro-Gly-Oh]

[out]
["** (**p < 0.01)", "* (*p < 0.05)", "* (*p < 0.05)"]

====

# Tested on: primary neural stem cells (NSCs)
# protocol.details: Differentiation of primary neural stem cells, βIII-tubulin fluorescence and Neurite Outgrowth Assay
# Assay type: cell-based, SD rats
# assay.context: 100 µg/mL, 4 days, significance vs blank control group
# Excerpt: […]
Where a SMILES comes first, the peptide text is derived from it. [ ]: non-standard residue; d: D form.
quantity.kind: Longest neurite length

Example results:
CC(C)C[C@H](NC(=O)[C@@H](NC(=O)CNC(=O)[C@@H]1CCCN1C(=O)[C@H](C)NC(=O)[C@H]1CCCN1C(=O)[C@H](CC(C)C)NC(=O)[C@H](C)N)[C@@H](C)O)C(=O)O [Compound 4, H-Ala-Leu-D-Pro-Ala-Pro-Gly-Thr-Leu-OH] (H-AL[dP]APGTL-OH) = *** (***p < 0.001)
CC(C)C[C@H](NC(=O)[C@H](C)N)C(=O)N1CCC[C@H]1C(=O)N[C@@H](C)C(=O)O [Compound 35, H-Ala-Leu-Pro-Ala-OH] (H-ALPA-OH) = ** (**p < 0.01)
CC(C)C[C@H](NC(=O)[C@@H](NC(=O)CNC(=O)[C@@H]1CCCN1C(=O)[C@@H](C)NC(=O)[C@@H]1CCCN1C(=O)[C@H](CC(C)C)NC(=O)[C@H](C)N)[C@@H](C)O)C(=O)O [Compound 5, H-Ala-Leu-Pro-D-Ala-Pro-Gly-Thr-Leu-OH] (H-ALP[dA]PGTL-OH) = *** (***p < 0.001)
CC(C)C[C@H](NC(=O)[C@H](NC(=O)CNC(=O)[C@@H]1CCCN1C(=O)[C@H](C)NC(=O)[C@@H]1CCCN1C(=O)[C@H](CC(C)C)NC(=O)[C@H](C)N)[C@H](C)O)C(=O)O [Compound 7, H-Ala-Leu-Pro-Ala-Pro-Gly-D-Thr-Leu-OH] (H-ALPAPG[dT]L-OH) = * (*p < 0.05)
CC(C)C[C@H](NC(=O)[C@@H](NC(=O)CNC(=O)[C@@H]1CCCN1C(=O)[C@H](C)NC(=O)[C@@H]1CCCN1C(=O)[C@@H](CC(C)C)NC(=O)[C@H](C)N)[C@@H](C)O)C(=O)O [Compound 3, H-Ala-D-Leu-Pro-Ala-Pro-Gly-Thr-Leu-OH] (H-A[dL]PAPGTL-OH) = ** (**p < 0.01)

List the reported Longest neurite length of each molecule below.
1. CC(C)C[C@H](NC(=O)[C@@H](NC(=O)CNC(=O)[C@@H]1CCCN1C(=O)[C@H](C)NC(=O)[C@@H]1CCCN1C(=O)[C@H](CC(C)C)NC(=O)[C@@H](C)N)[C@@H](C)O)C(=O)O [Compound 2, H-D-Ala-Leu-Pro-Ala-Pro-Gly-Thr-Leu-OH] (H-[dA]LPAPGTL-OH)
2. CC(C)C[C@H](NC(=O)[C@@H](NC(=O)CNC(=O)[C@H]1CCCN1C(=O)[C@H](C)NC(=O)[C@@H]1CCCN1C(=O)[C@H](CC(C)C)NC(=O)[C@H](C)N)[C@@H](C)O)C(=O)O [Compound 6, H-Ala-Leu-Pro-Ala-D-Pro-Gly-Thr-Leu-OH] (H-ALPA[dP]GTL-OH)

[out]
1: ** (**p < 0.01); 2: * (*p < 0.05)

====

# System: Brain microvascular endothelial cells (BMECs) and brain microvascular smooth muscle cells (BMVSMCs)
# protocol.details: In vitro angiogenesis assay, BMEC/BMVSMC co-culture on matrigel
# Assay type: cell-based, mouse
# assay.context: 0.1 mg/L, 48 h, significance vs blank control group
quantity.kind: Branch length

# example entries with known answers
H-PAPGTL-OH [Compound 26, H-Pro-Ala-Pro-Gly-Thr-Leu-OH] = * (*p < 0.05)
H-LAPAPGTL-OH [Compound 19, H-Leu-Ala-Pro-Ala-Pro-Gly-Thr-Leu-OH] = * (*p < 0.05)
H-LPAPGT-OH [Compound 32, H-Leu-Pro-Ala-Pro-Gly-Thr-OH] = * (*p < 0.05)
H-ALPAPGAL-OH [Compound 18, H-Ala-Leu-Pro-Ala-Pro-Gly-Ala-Leu-OH] = * (*p < 0.05)
H-ALPAPGT-OH [Compound 39, H-Ala-Leu-Pro-Ala-Pro-Gly-Thr-OH] = ** (**p < 0.01)
H-ALPAP-OH [Compound 30, H-Ala-Leu-Pro-Ala-Pro-OH] = * (*p < 0.05)
H-QLPAPGTL-OH [Compound 22, H-Gln-Leu-Pro-Ala-Pro-Gly-Thr-Leu-OH] = * (*p < 0.05)
Ac-ALPAPGTL-NH2 [Compound 11, Ac-Ala-Leu-Pro-Ala-Pro-Gly-Thr-Leu-NH2] = * (*p < 0.05)
H-LPAPG-OH [Compound 33, H-Leu-Pro-Ala-Pro-Gly-OH] = ** (**p < 0.01)
H-APGTL-OH [Compound 34, H-Ala-Pro-Gly-Thr-Leu-OH] = ** (**p < 0.01)

Provide each entry's Branch length from the list below.
1. H-ALPAPGTL-OH [Compound 1, H-Ala-Leu-Pro-Ala-Pro-Gly-Thr-Leu-OH]
2. Ac-ALPAPGTL-OH [Compound 9, Ac-Ala-Leu-Pro-Ala-Pro-Gly-Thr-Leu-OH]

[out]
1. ** (**p < 0.01)
2. * (*p < 0.05)

====

# Test system: Brain microvascular endothelial cells (BMECs) and brain microvascular smooth muscle cells (BMVSMCs)
# protocol.details: In vitro angiogenesis assay, BMEC/BMVSMC co-culture on matrigel
# Assay type: cell-based, mouse
# assay.context: 0.1 mg/L, 48 h, significance vs blank control group
Where a SMILES comes first, the peptide text is derived from it. [ ]: non-standard residue; d: D form.
quantity.kind: Number of intersections

CC(C)C[C@H](NC(=O)[C@@H](NC(=O)CNC(=O)[C@@H]1CCCN1C(=O)[C@@H](C)NC(=O)[C@@H]1CCCN1C(=O)[C@H](CC(C)C)NC(=O)[C@H](C)N)[C@@H](C)O)C(=O)O [Compound 5, H-Ala-Leu-Pro-D-Ala-Pro-Gly-Thr-Leu-OH] (H-ALP[dA]PGTL-OH) = * (*p < 0.05)
CC(C)C[C@H](NC(=O)[C@H](C)N)C(=O)N1CCC[C@H]1C(=O)N[C@@H](C)C(=O)N1CCC[C@H]1C(=O)NCC(=O)N[C@H](C(=O)N[C@H](CC(C)C)C(=O)O)[C@@H](C)O [Compound 8, H-Ala-Leu-Pro-Ala-Pro-Gly-Thr-D-Leu-OH] (H-ALPAPGT[dL]-OH) = * (*p < 0.05)
